Target: HLA-A*0201 (human, UniProt A*02:01)
Assay: REVEAL MHC binding assay (ProImmune)
Measured Parameter: % Pass/fail control

Solved cases (5 shown):
- Binder: "SLYGPGSYL [Peptide ID 15 SLYGPGSYL (HA-1)]"
  Measured Parameter: "% Pass/fail control"
  Result: "198 % of pass/fail control"
- Binder: "EMDEELHYA [Peptide ID 54 EMDEELHYA (CD33)]"
  Measured Parameter: "% Pass/fail control"
  Result: "117 % of pass/fail control"
- Binder: "ILYPINILI [Peptide ID 48 ILYPINILI (CD11a)]"
  Measured Parameter: "% Pass/fail control"
  Result: "214 % of pass/fail control"
- Binder: "LLLLLIFIV [Peptide ID 58 LLLLLIFIV (CD11a)]"
  Measured Parameter: "% Pass/fail control"
  Result: "6.4 % of pass/fail control"
- Binder: "TLPQLFLKV [Peptide ID 72 TLPQLFLKV (FLT3)]"
  Measured Parameter: "% Pass/fail control"
  Result: "182 % of pass/fail control"

Exercise: What does the record list as % Pass/fail control for RLYENRASL [Peptide ID 23 RLYENRASL (HA-1)] ?
Key: 266 % of pass/fail control

Exercise: Returns the measured % Pass/fail control for the input binder. Input: GLADVAVGV (Modified peptide) [Peptide ID 146 GLADVAVGV (CD11a, modified peptide)]
Key: 213 % of pass/fail control

Exercise: # query: % Pass/fail control of entry ELLDVSWLV (Modified peptide) [Peptide ID 150 ELLDVSWLV (TdT, modified peptide)]
Key: 239 % of pass/fail control

Exercise: Consider the binder LLIILLAEV [Peptide ID 68 LLIILLAEV (CD53)] and give its measured % Pass/fail control.
Key: 99.2 % of pass/fail control
